- ASSAY REMARKS: Compound was tested for solubility in pH buffer, at 25 degree C.
- Type: ADME
Answer each item with its documented solubility.
Supply the numeric figure in mM, leaving out any unit text.

For record NS(=O)(=O)c1nnc(N2C(=O)c3cccnc3C2=O)s1 the listed solubility is 72

Reported solubility ( NS(=O)(=O)c1nnc(NC(=O)CCN2C(=O)c3cccnc3C2=O)s1 ) = 81

Per the record, CCOc1ccc2nc(S(N)(=O)=O)sc2c1 [ETHOXZOLAMIDE] has solubility of 0.04

response.value for NS(=O)(=O)c1ccc(NC(=O)c2cccc(C(=O)O)n2)c(F)c1 (field: solubility) = 66

Per the records, this molecule ( NS(=O)(=O)c1nnc(NC(=O)c2cccc(C(=O)O)n2)s1 ) has solubility equal to 83

Measured solubility of Cn1nc(S(N)(=O)=O)s/c1=N\C(=O)c1cccc(C(=O)O)n1 : 79
